- method.notes: Inhibition of chymotrypsin-like activity of human 20S proteasome
Mark Condition met only for IC50 values smaller than 20 nM; exact matches and larger values are Condition not met.

# molecule, label
records = [
    ("COc1ccc(C[C@H](NC(=O)[C@@H](NC(=O)[C@H](Cc2ccc(OC)cc2)NC(=O)Cc2cccc3ccccc23)C(C)C)B(O)O)cc1", "Condition met"),
    ("CC(C)C[C@H](NC(=O)[C@H](Cc1ccccc1)NC(=O)c1cnccn1)B(O)O", "Condition not met"),
    ("COc1ccc(C[C@H](N)C(=O)N[C@H](C(=O)N[C@@H](CC(C)C)B(O)O)C(C)C)cc1", "Condition not met"),
    ("COc1ccc(C[C@H](N)C(=O)N[C@H](C(=O)N[C@@H](Cc2ccccc2)B(O)O)C(C)C)cc1", "Condition not met"),
    ("COc1ccc(CC(C=O)NC(=O)[C@@H](NC(=O)[C@H](Cc2ccc(OC)cc2)NC(=O)Cc2cccc3ccccc23)C(C)C)cc1 (stereo partly drawn)", "Condition not met"),
    ("COc1ccc(C[C@H](NC(=O)[C@@H](NC(=O)[C@@H](N)Cc2ccc(OC)cc2)C(C)C)B(O)O)cc1", "Condition not met"),
    ("COc1ccc(C[C@H](NC(=O)Cc2cccc3ccccc23)C(=O)N[C@H](C(=O)N[C@@H](CC(C)C)B(O)O)C(C)C)cc1", "Condition met"),
    ("COc1ccc(C[C@H](NC(=O)Cc2cccc3ccccc23)C(=O)N[C@H](C(=O)N[C@@H](Cc2ccccc2)B(O)O)C(C)C)cc1", "Condition met"),
]
